Each record here notes measured pIC50.
# target-desc: hAC1 (Homo sapiens, UniProt Q08828)
# Construct: expressed in transfected cells
# Sequence (Q08828 whole entry): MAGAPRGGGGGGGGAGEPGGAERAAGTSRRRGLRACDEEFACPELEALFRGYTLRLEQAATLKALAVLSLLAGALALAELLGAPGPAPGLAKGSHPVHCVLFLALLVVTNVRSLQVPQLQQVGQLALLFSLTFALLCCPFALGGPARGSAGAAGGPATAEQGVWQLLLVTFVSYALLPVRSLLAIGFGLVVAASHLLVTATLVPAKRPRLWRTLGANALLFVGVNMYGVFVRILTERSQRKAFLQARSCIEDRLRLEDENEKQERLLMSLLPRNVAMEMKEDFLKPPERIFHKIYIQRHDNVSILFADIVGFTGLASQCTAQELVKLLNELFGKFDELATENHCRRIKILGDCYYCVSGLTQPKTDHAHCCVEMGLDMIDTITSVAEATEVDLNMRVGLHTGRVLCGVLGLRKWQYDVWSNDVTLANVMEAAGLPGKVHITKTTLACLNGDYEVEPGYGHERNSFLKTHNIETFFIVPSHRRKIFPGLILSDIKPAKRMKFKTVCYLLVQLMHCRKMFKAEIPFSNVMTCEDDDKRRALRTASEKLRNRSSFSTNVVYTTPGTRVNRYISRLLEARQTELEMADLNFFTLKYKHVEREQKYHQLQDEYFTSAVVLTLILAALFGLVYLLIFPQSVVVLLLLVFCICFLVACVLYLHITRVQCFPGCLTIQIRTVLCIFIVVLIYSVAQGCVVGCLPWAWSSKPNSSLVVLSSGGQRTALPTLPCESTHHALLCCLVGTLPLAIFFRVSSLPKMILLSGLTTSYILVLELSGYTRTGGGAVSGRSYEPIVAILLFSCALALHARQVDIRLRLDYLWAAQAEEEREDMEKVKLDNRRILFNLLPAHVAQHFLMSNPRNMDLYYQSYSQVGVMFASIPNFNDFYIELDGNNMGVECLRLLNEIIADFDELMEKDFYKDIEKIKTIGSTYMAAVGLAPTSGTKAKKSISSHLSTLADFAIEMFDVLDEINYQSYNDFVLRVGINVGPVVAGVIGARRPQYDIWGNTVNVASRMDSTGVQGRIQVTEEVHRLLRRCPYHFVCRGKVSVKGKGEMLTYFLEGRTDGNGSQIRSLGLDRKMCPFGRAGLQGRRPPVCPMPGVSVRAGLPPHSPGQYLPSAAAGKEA
# assay-text: Cyclic AMP accumulation (HTRF) in HEK cells stably expressing AC1, stimulated with A23187
# Type: cell-based
# condition-info: Table 1; stable HEK cells, A23187-stimulated cAMP; n ≥ 3; read-out: hAC1 IC50
pIC50: −log10 of the molar value.

molecule | pIC50
CSc1ccccc1C(=O)Nc1cc(C)nn1-c1nc2c(c(=O)[nH]1)CCC2 | 5.23
O=C(Nc1nnc(-c2ccc3c(c2)OCCO3)o1)c1ccc(Br)cc1 | 5.70
CCc1cc(=O)[nH]c(-n2nc(C)cc2NC(=O)c2ccccc2F)n1 | 6.30
CC1CC(C)CN(S(=O)(=O)c2ccc(C(=O)Nc3nnc(-c4cccs4)o3)cc2)C1 (stereo not shown) | 5.04
CCc1c(C)nc(-n2nc(C)cc2NC(=O)c2ccco2)[nH]c1=O | 6.05
O=C(Nc1nnc(-c2ccc3c(c2)CCCC3)o1)c1ccccc1 | 5.68
CSc1cccc(C(=O)Nc2nnc(C3CCCCC3)o2)c1 | 5.12
